System: NCCIT (Other Solid Carcinomas)
Test Details: Bliss excess, mean over the matrix (fraction); higher = more synergy
Kindly return y if reported Bliss excess is no lower than 0.03; return n if it is lower.

Would you please look over these solved cases?
# Molecule, Answer Label
records = [
    ("CN(CCO)CC[C@H](CSc1ccccc1)Nc1ccc(S(=O)(=O)NC(=O)c2ccc(N3CCC([C@@H](O)c4ccccc4-c4ccc(Cl)cc4)CC3)cc2)cc1S(=O)(=O)C(F)(F)F [AZD4320] + C[C@@H](Nc1cc(F)cc(F)c1)c1cc(C(=O)N(C)C)cc2c(=O)cc(N3CCOCC3)oc12 [AZD8186] (first compound max 1 µM, 7x7, partner max 3 µM)", "y"),
    ("COc1cc2c(cc1OCCCCCOc1cc3c(cc1OC)C(=O)N1C=C(C)C[C@H]1C=N3)N=C[C@@H]1CC(C)=CN1C2=O [SG3199] + O=C(c1cc(Cc2n[nH]c(=O)c3ccccc23)ccc1F)N1CCN(C(=O)C2CC2)CC1 [Olaparib] (first compound max 0.001 µM, 7x7, partner max 10 µM)", "n"),
    ("CC(=O)c1c(C)c2cnc(Nc3ccc(N4CCNCC4)cn3)nc2n(C2CCCC2)c1=O [Palbociclib] + Cn1cnc2c(F)c(Nc3ccc(Br)cc3Cl)c(C(=O)NOCCO)cc21 [Selumetinib] (first compound max 10 µM, 7x7, partner max 10 µM)", "n"),
]

// query Hi, just wondering whether CC1(C)CCC(CN2CCN(c3ccc(C(=O)NS(=O)(=O)c4ccc(NCC5CCOCC5)c([N+](=O)[O-])c4)c(Oc4cnc5[nH]ccc5c4)c3)CC2)=C(c2ccc(Cl)cc2)C1 [Venetoclax] + CN(C)CCCOc1ccc(-c2ccc3ncc4c(c3c2)n(C2CCOCC2)c(=O)n4C)cn1 [AZD0156] (first compound max 1 µM, 7x7, partner max 1 µM) shows Bliss excess of 0.03 or higher.
// result n

// query Does the reported Bliss excess for N#Cc1cnc(Nc2cc(NC[C@H]3CNCCO3)c(C(F)(F)F)cn2)cn1 [SRA737] + C=CCn1c(=O)c2cnc(Nc3ccc(N4CCN(C)CC4)cc3)nc2n1-c1cccc(C(C)(C)O)n1 [AZD1775] (first compound max 10 µM, partner max 1 µM) fall at or above the 0.03 mark?
// result y

// query # check: Bliss excess of C[C@@H](c1ccc2nccn2c1)n1nnc2ncc(-c3cnn(C)c3)nc21 [Savolitinib] + Cc1c2c(nn1C)CSCc1cc(n(C)n1)CSc1cc(c3ccccc3c1)OCCCc1c(C(=O)O)n(C)c3c-2c(Cl)ccc13 [AZD5991] (first compound max 1 µM, 7x7, partner max 1 µM) is greater than or equal to 0.03
// result n

----------
Below, each of the compounds is paired with its reported combination Emax value.
System: T-T (Esophageal Squamous Cell Carcinoma)
Test Details: combination Emax (second highest fraction inhibited in the dose matrix, 72 h); higher = more inhibition; extreme values may be limits of the assay
Just the number, please, no unit attached.

Example entries begin here.
# Compound, Parameter, Value Reported
records = [
    ("CN(CCO)CC[C@H](CSc1ccccc1)Nc1ccc(S(=O)(=O)NC(=O)c2ccc(N3CCC([C@@H](O)c4ccccc4-c4ccc(Cl)cc4)CC3)cc2)cc1S(=O)(=O)C(F)(F)F [AZD4320] + C1CN(CCC1(C(=O)N[C@@H](CCO)C2=CC=C(C=C2)Cl)N)C3=NC=NC4=C3C=CN4 [Capivasertib] (first compound max 1 µM, 7x7, partner max 3 µM)", "combination Emax", 0.199),
    ("CC1(C)CCC(CN2CCN(c3ccc(C(=O)NS(=O)(=O)c4ccc(NCC5CCOCC5)c([N+](=O)[O-])c4)c(Oc4cnc5[nH]ccc5c4)c3)CC2)=C(c2ccc(Cl)cc2)C1 [Venetoclax] + CS(=O)(=O)CCNCc1ccc(-c2ccc3ncnc(Nc4ccc(OCc5cccc(F)c5)c(Cl)c4)c3c2)o1 [Lapatinib] (first compound max 1 µM, 7x7, partner max 10 µM)", "combination Emax", 0.794),
]

Now for another entry.
// query State the recorded combination Emax for this entry: CCN(CCO)CCCOc1ccc2c(Nc3cc(CC(=O)Nc4cccc(F)c4)[nH]n3)ncnc2c1 [AZD2811] + O=C(c1cc(Cc2n[nH]c(=O)c3ccccc23)ccc1F)N1CCN(C(=O)C2CC2)CC1 [Olaparib] (first compound max 1 µM, 7x7, partner max 10 µM)
// result 0.212

----------
Catalogue of compounds with associated Bliss excess
Tested on: SK-GT-4 (Esophageal Adenocarcinoma)
Test Details: Bliss excess, mean over the matrix (fraction); higher = more synergy
Answer using only a numeral; do not append any unit.

# Compound, Bliss excess
data = [
    ("O=C(c1cc(Cc2n[nH]c(=O)c3ccccc23)ccc1F)N1CCN(C(=O)C2CC2)CC1 [Olaparib] + Cc1c2c(nn1C)CSCc1cc(n(C)n1)CSc1cc(c3ccccc3c1)OCCCc1c(C(=O)O)n(C)c3c-2c(Cl)ccc13 [AZD5991] (first compound max 10 µM, 7x7, partner max 1 µM)", -0.061),
]

Okay, now this compound:
// query What does the record list as Bliss excess for CC(=O)c1c(C)c2cnc(Nc3ccc(N4CCNCC4)cn3)nc2n(C2CCCC2)c1=O [Palbociclib] + Cn1cnc2c(F)c(Nc3ccc(Br)cc3Cl)c(C(=O)NOCCO)cc21 [Selumetinib] (first compound max 10 µM, 7x7, partner max 10 µM) ?
// result -0.0126

----------
Test system: JHH-4 (Hepatocellular Carcinoma)
Test Details: combination Emax (second highest fraction inhibited in the dose matrix, 72 h); higher = more inhibition; extreme values may be limits of the assay
Parameter: combination Emax
Respond using a number only.

Record excerpt, results attached:
# Compound, Value Reported
data = [
    ("Cc1cc2ncnn2cc1Nc1ncc2c(n1)n(C1CCOCC1)c(=O)n2C [AZD7648] + O=C(c1cc(Cc2n[nH]c(=O)c3ccccc23)ccc1F)N1CCN(C(=O)C2CC2)CC1 [Olaparib] (first compound max 10 µM, 7x7, partner max 10 µM)", 0.112),
    ("COc1cccc2c1C(=O)c1c(O)c3c(c(O)c1C2=O)C[C@@](O)(C(=O)CO)C[C@@H]3O[C@H]1C[C@H](N)[C@H](O)[C@H](C)O1 [Doxorubicin] + Cc1cc2ncnn2cc1Nc1ncc2c(n1)n(C1CCOCC1)c(=O)n2C [AZD7648] (first compound max 1 µM, 7x7, partner max 10 µM)", 0.666),
    ("C=CCn1c(=O)c2cnc(Nc3ccc(N4CCN(C)CC4)cc3)nc2n1-c1cccc(C(C)(C)O)n1 [AZD1775] + C1CN(CCC1(C(=O)N[C@@H](CCO)C2=CC=C(C=C2)Cl)N)C3=NC=NC4=C3C=CN4 [Capivasertib] (first compound max 3 µM, partner max 3 µM)", 0.439),
]

// query Under JHH-4 (Hepatocellular Carcinoma): combination Emax value of CN(CCO)CC[C@H](CSc1ccccc1)Nc1ccc(S(=O)(=O)NC(=O)c2ccc(N3CCC([C@@H](O)c4ccccc4-c4ccc(Cl)cc4)CC3)cc2)cc1S(=O)(=O)C(F)(F)F [AZD4320] + Cc1cc2ncnn2cc1Nc1ncc2c(n1)n(C1CCOCC1)c(=O)n2C [AZD7648] (first compound max 1 µM, 7x7, partner max 10 µM) ?
// result 0.233

// query Param readout= combination Emax; system= JHH-4 (Hepatocellular Carcinoma); entry= C[C@@H]1COCCN1c1cc(C2([S@](C)(=N)=O)CC2)nc(-c2ccnc3[nH]ccc23)n1 [AZD6738] + O=C(c1cc(Cc2n[nH]c(=O)c3ccccc23)ccc1F)N1CCN(C(=O)C2CC2)CC1 [Olaparib] (first compound max 10 µM, 7x7, partner max 10 µM) ; returns value.
// result 0.251

// query Give recorded combination Emax with JHH-4 (Hepatocellular Carcinoma) for the following compound: CCN(CCO)CCCOc1ccc2c(Nc3cc(CC(=O)Nc4cccc(F)c4)[nH]n3)ncnc2c1 [AZD2811] + C=CCn1c(=O)c2cnc(Nc3ccc(N4CCN(C)CC4)cc3)nc2n1-c1cccc(C(C)(C)O)n1 [AZD1775] (first compound max 1 µM, partner max 1 µM)
// result 0.355

// query Test system JHH-4 (Hepatocellular Carcinoma); read-out combination Emax; what value for CC1(C)CCC(CN2CCN(c3ccc(C(=O)NS(=O)(=O)c4ccc(NCC5CCOCC5)c([N+](=O)[O-])c4)c(Oc4cnc5[nH]ccc5c4)c3)CC2)=C(c2ccc(Cl)cc2)C1 [Venetoclax] + C[C@@H]1COCCN1C2=NC(=NC(=C2)C3(CC3)[S@](=N)(=O)C)C4=C5C=CNC5=NC=C4 [AZD6738] (first compound max 1 µM, 7x7, partner max 10 µM) ?
// result 0.254

----------
Test system: RD (Rhabdomyosarcoma)
Test Details: Bliss excess, mean over the matrix (fraction); higher = more synergy
Parameter: Bliss excess
Answer field: number only, no words.

# Compound, Bliss excess
records = [
    ("COc1cccc(OCCCN)c1-c1cc(Nc2cnc(C#N)cn2)n[nH]1 [Prexasertib] + O=C(c1cc(Cc2n[nH]c(=O)c3ccccc23)ccc1F)N1CCN(C(=O)C2CC2)CC1 [Olaparib] (first compound max 1 µM, 7x7, partner max 10 µM)", -0.0444),
    ("CC(=O)c1c(C)c2cnc(Nc3ccc(N4CCNCC4)cn3)nc2n(C2CCCC2)c1=O [Palbociclib] + CC1(C)CCC(CN2CCN(c3ccc(C(=O)NS(=O)(=O)c4ccc(NCC5CCOCC5)c([N+](=O)[O-])c4)c(Oc4cnc5[nH]ccc5c4)c3)CC2)=C(c2ccc(Cl)cc2)C1 [Venetoclax] (first compound max 10 µM, 7x7, partner max 1 µM)", -0.0486),
    ("COc1cccc(OCCCN)c1-c1cc(Nc2cnc(C#N)cn2)n[nH]1 [Prexasertib] + CCc1c2c(nc3ccc(O)cc13)-c1cc3c(c(=O)n1C2)COC(=O)[C@]3(O)CC [SN-38] (first compound max 1 µM, 7x7, partner max 0.3 µM)", 0.065),
    ("CC(=O)c1c(C)c2cnc(Nc3ccc(N4CCNCC4)cn3)nc2n(C2CCCC2)c1=O [Palbociclib] + Cc1c2c(nn1C)CSCc1cc(n(C)n1)CSc1cc(c3ccccc3c1)OCCCc1c(C(=O)O)n(C)c3c-2c(Cl)ccc13 [AZD5991] (first compound max 10 µM, 7x7, partner max 1 µM)", 0.0077),
    ("Cc1cc2ncnn2cc1Nc1ncc2c(n1)n(C1CCOCC1)c(=O)n2C [AZD7648] + O=C(c1cc(Cc2n[nH]c(=O)c3ccccc23)ccc1F)N1CCN(C(=O)C2CC2)CC1 [Olaparib] (first compound max 10 µM, 7x7, partner max 10 µM)", -0.0508),
]

// query Which value of Bliss excess has been reported for COc1cc2c(cc1OCCCCCOc1cc3c(cc1OC)C(=O)N1C=C(C)C[C@H]1C=N3)N=C[C@@H]1CC(C)=CN1C2=O [SG3199] + O=C(c1cc(Cc2n[nH]c(=O)c3ccccc23)ccc1F)N1CCN(C(=O)C2CC2)CC1 [Olaparib] (first compound max 0.001 µM, 7x7, partner max 10 µM) in the records?
// result -0.0453

// query GET /values?readout=Bliss excess&item= C[C@@H](c1ccc2nccn2c1)n1nnc2ncc(-c3cnn(C)c3)nc21 [Savolitinib] + CC1(C)CCC(CN2CCN(c3ccc(C(=O)NS(=O)(=O)c4ccc(NCC5CCOCC5)c([N+](=O)[O-])c4)c(Oc4cnc5[nH]ccc5c4)c3)CC2)=C(c2ccc(Cl)cc2)C1 [Venetoclax] (first compound max 1 µM, 7x7, partner max 1 µM)
// result -0.0598
